Measured EC50, listed per entry.
- Tested On: T1, TauC3 (C-terminally truncated tau fragment ending at aspartate 421 of htau40) (human, UniProt P10636 1-738)
- T1 construct: Generated and purified by Genscript; also called Human TauC3; recombinant TauC3 protein
- T1 sequence (P10636 other isoform, or with tags, fused parts or gaps): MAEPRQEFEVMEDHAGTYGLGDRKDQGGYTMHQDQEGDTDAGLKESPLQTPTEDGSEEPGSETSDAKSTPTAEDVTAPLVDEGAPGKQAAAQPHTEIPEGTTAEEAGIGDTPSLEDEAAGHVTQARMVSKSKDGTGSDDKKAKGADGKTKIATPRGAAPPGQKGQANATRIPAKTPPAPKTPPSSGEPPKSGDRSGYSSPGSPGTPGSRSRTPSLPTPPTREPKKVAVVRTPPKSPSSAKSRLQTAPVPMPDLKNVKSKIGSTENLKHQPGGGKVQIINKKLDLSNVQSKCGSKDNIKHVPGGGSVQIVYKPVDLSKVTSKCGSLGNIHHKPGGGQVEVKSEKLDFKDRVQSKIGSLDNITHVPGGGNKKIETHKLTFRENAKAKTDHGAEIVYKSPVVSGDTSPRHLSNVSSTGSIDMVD
- Experiment Notes: binding ELISA on coated TauC3, OD650; left table (HC variants)
The reply should contain only the number, in nM.

Binder	Data Value
Tau01 HCKJ (antibody, V domains shown, human IgG4 kappa (HuG4K)) VH: LVQLVESGGGLVQPGGSLKLSCAASGFTFNTYAMNWVRQASGKGLEWVGRIRSKSNNYATYYAASVKGRFTISRDDSKSMAYLQMDSLKTEDTAVYYCVGGGDFWGQGTLVTVSS VL: DIQMTQSPSSLSASVGDRVTITCRASQEISVYLGWYQQKPGKAPKRLIYGAFSLQSGVPSRFSGSRSGTEFTLTISSLQPEDFATYYCLQYVRYPWTFGGGTKVEIK	0.766
Tau01 HCKP (antibody, V domains shown, human IgG4 kappa (HuG4K)) VH: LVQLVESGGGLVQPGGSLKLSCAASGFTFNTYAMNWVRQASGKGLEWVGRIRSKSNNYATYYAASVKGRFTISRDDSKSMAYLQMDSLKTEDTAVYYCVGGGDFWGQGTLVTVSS VL: DIQMTQSPSSLSASVGDRVTITCRASQEISVYLGWFQQKPGKAPKRLIYGAFKLQSGVPSRFSGSRSGTEYTLTISSLQPEDFATYYCLQYVRYPWTFGGGTKVEIK	0.821

Then this binder:
EC50 in this record for Tau01 HCKB HuG4K (antibody, V domains shown, human IgG4 kappa (HuG4K)) VH: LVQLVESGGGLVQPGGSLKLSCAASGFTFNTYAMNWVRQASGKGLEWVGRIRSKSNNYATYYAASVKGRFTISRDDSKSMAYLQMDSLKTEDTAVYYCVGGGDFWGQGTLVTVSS VL: DIQMTQSPSSLSASVGDRVTITCRASQEISVYLSWFQQKPGKAIKRLIYGAFTLQSGVPSRFSGSRSGSEYTLTISSLQPEDFATYYCLQYVRYPWTFGGGTKVEIK : 0.73
